FYI, the data here is from paper PMC8765781.

# Test system: wild-type ZIKV (Ugandan MR766 strain) in Vero cells
# ASSAY_TEXT: ZIKV cytopathic effect (CPE) inhibition qHTS assay, CellTiter-Glo readout
# Assay type: cell-based, Zika virus
Entries and their Efficacy

>>> result("C/C=C(/C)C(=O)OC1CC(C)(C)CC2C3=CCC4C5(C)CCC(O[C@@H]6O[C@H](C(=O)O)[C@@H](O)[C@H](O)[C@H]6O[C@@H]6O[C@H](CO)[C@H](O)[C@H](O[C@@H]7OC[C@H](O)[C@H](O)[C@H]7O[C@@H]7O[C@H](CO)[C@@H](O)[C@H](O)[C@H]7O)[C@H]6O)C(C)(C)C5CCC4(C)C3(C)C(O)C(O)C12CO (stereo partly drawn) [NCGC00386019-01]")
-41.4

Q: Lookup: Efficacy / wild-type ZIKV (Ugandan MR766 strain) in Vero cells / C=CC(=O)Nc1ccc2ncnc(Nc3cccc(Br)c3)c2c1 [NCGC00386260-02]
A: -35.975

Q: Lookup: Efficacy / wild-type ZIKV (Ugandan MR766 strain) in Vero cells / O=S(=O)(c1ccc(S(=O)(=O)n2cnc3ccccc32)cc1)N1CCCCCC1 [MLS000033224-02]
A: -29.668

====

Entries and their Log AC50 (M)
# Test system: Vero cells
Express it in M; write the number only.

>>> readout_number("CCOC(=O)N1CCN(/[N+]([O-])=N/Oc2ccc([N+](=O)[O-])cc2C#N)CC1")
-5.4827
>>> readout_number("CC#C[C@]1(O)CC[C@H]2[C@@H]3CCC4=CC(=O)CCC4=C3[C@@H](c3ccc(N(C)C)cc3)C[C@@]21C")
-4.5827
>>> readout_number("Cc1ccc(NC(=O)c2ccc(CN3CC[C@H](N(C)C)C3)c(C(F)(F)F)c2)cc1Nc1ncc(-c2cncnc2)cn1")
-4.7827

Q: Lookup: Log AC50 (M) / Vero cells / CC1CCCC(SCC(O)C(=O)O)CC(=O)c2c(O)cc(O)cc2CC(=O)O1 (stereo not shown)
A: -4.7408

Q: Lookup: Log AC50 (M) / Vero cells / CC(NCc1ccc2c(c1)[nH]/c(=N\C(=O)c1ccc(-c3cn[nH]c3)s1)n2CC(C)(C)O)C(C)(C)C (stereo not shown)
A: -5.8327

====

Each entry below carries its measured Log AC50 (M), system: Vero cells.
Answer by giving the amount and then stating its unit.

For orientation, consider the following solved cases.
>>> result("Cc1c(Cn2c(C)nc3c(C(=O)O)cc(N4CCOCC4)cc32)cccc1C(F)(F)F")
"-4.8327 M"
>>> result("CCCCN(CCCC)CCC(O)c1cc2c(Cl)cc(Cl)cc2c2cc(C(F)(F)F)ccc12 (stereo not shown)")
"-4.5327 M"
>>> result("O=C(Nc1ccc([N+](=O)[O-])cc1Cl)c1cc(Cl)ccc1O [NCGC00015735-12]")
"-5.9827 M"
>>> result("CC(C)c1cc(-c2n[nH]c(=O)n2-c2ccc3c(ccn3C)c2)c(O)cc1O [NCGC00346678-04]")
"-5.0327 M"
>>> result("CC(C)c1cc(-c2n[nH]c(=O)n2-c2ccc3c(ccn3C)c2)c(O)cc1O [NCGC00346678-01]")
"-5.0827 M"
>>> result("O=C1Nc2ccc(Cl)cc2[C@@](C#CC2CC2)(C(F)(F)F)O1")
"-4.7827 M"

Please examine the following record next.
Q: Lookup: Log AC50 (M) / Vero cells / CC(=O)N(C)C1(c2ccccc2)CCN(CCC[C@]2(c3ccc(Cl)c(Cl)c3)CCCN(C(=O)c3ccccc3)C2)CC1
A: -4.7327 M
